system: P388; experiment: Antitumor activity in mouse P388 cells xenografted B6D2F1 mouse assessed as increase in life span at 20 mg/kg/day, ip administered 3 to 7 days postxenografting; format: functional; settings: route intraperitoneal
QUANTITY_NAME: Activity
Number first, unit second: that is the form wanted.

Here's what some known entries look like.
O=C(CCCCCCC(=O)Nc1ccccc1)NO [VORINOSTAT] :: 11%
O=C(/C=C/c1ccc(Cl)cc1F)NCCCCCC(=O)NO :: 0%
O=C(/C=C/c1ccc2cccnc2c1)NCCCCCC(=O)NO :: 0%

What the record says about `O=C(C=C1c2ccccc2-c2ccccc21)NCCCCCC(=O)NO` : Activity is 11%

====

Listed here are compounds together with their documented IC50.
system: HeLa; experiment: Antiproliferative activity against human HeLa cells after 4 hrs by WST-1 assay; type: functional, cell-based; details: 48 h
// units = µM; emit number, no label

Here's what some known entries look like.
O=C(CCCCCCC(=O)NCCc1ccccc1)NO :: 13.3
O=C(/C=C/c1cccc2cccnc12)NCCCCCC(=O)NO :: 20.9
CN(C)c1ccc(C(=O)NCCCCCC(=O)NO)cc1 :: 4.1

What the record says about `O=C(C=C1c2ccccc2CCc2ccccc21)NCCCCCC(=O)NO` : IC50 is 9.9

What the record says about `O=C(CCCCCCCNC(=O)c1ccc2ccccc2c1)NO` : IC50 is 3.6

What the record says about `O=C(/C=C/c1ccncc1)NCCCCCC(=O)NO.O=C(O)C(=O)O` : IC50 is 46.4

====

biological target: Histone deacetylase 9 (Homo sapiens, UniProt Q9UKV0); assay: Inhibition of human recombinant HDAC9
Sequence (Q9UKV0 whole entry): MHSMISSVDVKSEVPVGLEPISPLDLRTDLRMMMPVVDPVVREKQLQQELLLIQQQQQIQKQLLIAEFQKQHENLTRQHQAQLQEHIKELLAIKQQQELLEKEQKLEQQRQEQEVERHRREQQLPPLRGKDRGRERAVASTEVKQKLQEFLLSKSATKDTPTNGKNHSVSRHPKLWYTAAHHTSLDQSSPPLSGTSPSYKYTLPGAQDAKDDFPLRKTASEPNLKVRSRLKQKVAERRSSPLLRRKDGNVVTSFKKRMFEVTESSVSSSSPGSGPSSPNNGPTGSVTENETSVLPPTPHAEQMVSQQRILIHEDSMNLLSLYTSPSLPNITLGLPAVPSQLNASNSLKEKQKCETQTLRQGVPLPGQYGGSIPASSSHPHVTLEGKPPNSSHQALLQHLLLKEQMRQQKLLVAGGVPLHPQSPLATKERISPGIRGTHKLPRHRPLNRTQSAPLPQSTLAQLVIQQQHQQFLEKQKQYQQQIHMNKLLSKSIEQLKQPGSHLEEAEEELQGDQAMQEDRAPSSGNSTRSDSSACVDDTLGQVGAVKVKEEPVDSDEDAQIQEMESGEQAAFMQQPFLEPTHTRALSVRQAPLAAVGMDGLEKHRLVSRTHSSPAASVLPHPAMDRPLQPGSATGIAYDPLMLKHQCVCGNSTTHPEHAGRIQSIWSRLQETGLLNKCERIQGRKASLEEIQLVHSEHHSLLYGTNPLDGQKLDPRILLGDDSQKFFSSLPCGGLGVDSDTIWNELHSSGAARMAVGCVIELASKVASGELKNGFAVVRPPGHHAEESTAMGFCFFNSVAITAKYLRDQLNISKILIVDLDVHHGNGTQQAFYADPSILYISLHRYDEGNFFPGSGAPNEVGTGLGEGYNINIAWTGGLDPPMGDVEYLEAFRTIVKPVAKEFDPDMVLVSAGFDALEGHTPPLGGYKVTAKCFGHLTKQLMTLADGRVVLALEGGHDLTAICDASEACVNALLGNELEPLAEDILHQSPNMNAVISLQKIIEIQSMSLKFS
QUANTITY_NAME: pIC50
Answer as the number alone; pIC50 is minus log10 of concentration in mol/L.

Lab entry: Histone deacetylase 9 (Homo sapiens, UniProt Q9UKV0) assay, compound `O=C(C=C1c2ccccc2-c2ccccc21)NCCCCCC(=O)NO` , pIC50 = 8.64

====

system: HeLa; test: Antiproliferative activity against human HeLa cells after 4 hrs by WST-1 assay; format: functional, cell-based; settings: 48 h
Criterion: IC50 strictly less than 6 µM. Met: satisfied. Not met: not satisfied.

Please review the entries below; each comes with its answer.
O=C(CCCCCNC(=O)CCc1ccccc1)NO :: not satisfied
O=C(CCCCCNC(=O)CCCCc1ccccc1)NO :: not satisfied
O=C(/C=C/c1ccc(Cl)cc1F)NCCCCCC(=O)NO :: not satisfied

Lookup: Is it true that IC50 reported for `O=C(CCCCCNC(=O)Cc1ccc(-c2ccccc2)cc1)NO` is less than 6 µM?
Found: not satisfied

Lookup: Is it true that IC50 reported for `O=C(CCCCCNC(=O)C/C=C/c1ccccc1)NO` is less than 6 µM?
Found: not satisfied

Lookup: Is it true that IC50 reported for `O=C(CCCCCCC(=O)NCc1ccccc1)NO` is less than 6 µM?
Found: not satisfied

Lookup: Is it true that IC50 reported for `O=C(/C=C/c1ccccc1)NCCCCCC(=O)NO` is less than 6 µM?
Found: satisfied

Lookup: Is it true that IC50 reported for `O=C(/C=C/c1ccc2ccccc2c1)NCCCCCC(=O)NO` is less than 6 µM?
Found: not satisfied

Lookup: Is it true that IC50 reported for `O=C(CCCCCNC(=O)CC/C=C/c1ccccc1)NO` is less than 6 µM?
Found: not satisfied

Lookup: Is it true that IC50 reported for `O=C(CCCCCCNC(=O)c1ccc2ccccc2c1)NO` is less than 6 µM?
Found: satisfied

Lookup: Is it true that IC50 reported for `O=C(C=C1c2ccccc2-c2ccccc21)NCCCCCC(=O)NO` is less than 6 µM?
Found: satisfied

Lookup: Is it true that IC50 reported for `O=C(CCCCCNC(=O)c1ccc(-c2ccccc2)cc1)NO` is less than 6 µM?
Found: satisfied

Data provenance is ChEMBL document CHEMBL1137690.
